tested on: SF-539; test: NCI tumour cell line growth inhibition, 48 h
The source made the active and inactive calls. Cut-off read from the data, not from the text of the source: active = GI50 up to about 1.1 µM and inactive = higher.
Outcomes: active, inactive

| molecule | target-desc | class-name |
| --- | --- | --- |
| [N-]=[N+]=NC1C(O)C(CO)OC1n1cnc2c(N)ncnc21 (stereo not drawn) | SF-539 | inactive |
| O=[N+]([O-])c1cc(Cl)ccc1S(=O)(=O)c1cc(Cl)cc2c1NCCC2 | SF-539 | inactive |
| CC1=NN(C(=O)c2ccc(Cl)cc2)C(=O)/C1=C/c1cccc(O)c1 | SF-539 | inactive |
| CC(=O)O[C@@H]1O[Si](C(C)(C)C)(C(C)(C)C)[C@H](C)[C@H]1C | SF-539 | inactive |
| O=C(CNc1cccc([N+](=O)[O-])c1)Nn1c(-c2ccccc2)nc2ccccc2c1=O | SF-539 | inactive |
| O=C1c2cscc2C(=O)C1(O)O | SF-539 | inactive |
| O=C(CCc1cc(O)ccc1O)OCCc1ccccc1 | SF-539 | inactive |
| CN(C)CCNC(=O)c1cccc2cc3ccc4ccccc4c3nc12 | SF-539 | active |
| O=C1c2ccccc2C(=O)c2c(/C=C\N3CCCCC3)ccnc21 | SF-539 | inactive |
| COc1cc([C@@H]2c3cc4c(cc3[C@@H](NC(=O)c3ccccc3)C3COC(=O)[C@@H]32)OCO4)cc(OC)c1O (stereo partly drawn) | SF-539 | inactive |
| OCCOCCO[P+]1(OCCOCCO)n2c3ccc2C(c2ccccc2)=C2C=CC(=N2)C(c2ccccc2)=c2ccc(n21)=C(c1ccccc1)C1=NC(=C3c2ccccc2)C=C1 | SF-539 | active |
| CCNC1(c2cccc(C)c2)OC(C)(C)c2cccc3cccc1c23 (stereo not drawn) | SF-539 | inactive |
| CCOC(=O)C(C)(C)Oc1ccc2c(C)c(-c3ccc(Cl)cc3)c(=O)oc2c1 | SF-539 | inactive |
| CC1=NN(c2nc(N)nc(CF)n2)C(C)(C)C1 | SF-539 | inactive |
| CSc1ccc2c(cc1=O)[C@@H](NC(=O)c1cc(O)c(O)c(O)c1)CCc1cc(O)c(O)c(O)c1-2 | SF-539 | inactive |
| CCC1(OC(C)=O)C(=O)OCc2c1cc1n(c2=O)Cc2cc3ccccc3nc2-1 (stereo not drawn) | SF-539 | active |
| Cc1nc2c(=O)n(-c3ccccc3)c3ccccc3c2o1 | SF-539 | inactive |
| CCOC(=O)C(NC(=O)CC)(Nc1ccccc1OC)C(F)(F)F (stereo not drawn) | SF-539 | inactive |
| COc1cccc(C2c3cc4c(cc3OC(NNc3ccccc3)C2C)OCO4)c1OC (stereo not drawn) | SF-539 | inactive |
| CC(O)c1nc(C#N)c(N)o1 (stereo not drawn) | SF-539 | inactive |
| c1ccc2c3c([nH]c2c1)[C@H]1C2CCCCN2CN1CC3 (stereo partly drawn) | SF-539 | inactive |
| CC(=S)NC1C(Oc2ccc3c(C)cc(=O)oc3c2)OC(CO)C(O)C1O (stereo not drawn) | SF-539 | inactive |
| C=C1C(=O)OC2C=C(CCC(C)=O)C(C)C(OC(C)=O)CC12 (stereo not drawn) | SF-539 | inactive |
| C/C=C1\CN2CCc3c([nH]c4ccccc34)C2CC1C(=O)OC (stereo not drawn) | SF-539 | inactive |
| O=C1C(Cl)=C(N2CCN(CCOCCO)CC2)C(=O)c2ncccc21 | SF-539 | inactive |
| N#CC(c1cc2c(cc1Br)OCO2)N1CCOCC1 (stereo not drawn) | SF-539 | inactive |
| COc1ccc(OC)c(/C=C/c2cnnc3ccccc23)c1 | SF-539 | inactive |
| Cc1ccc(/C=N/NS(=O)(=O)c2ccccc2)cc1 | SF-539 | inactive |
| N/N=C(\c1nc2ccc(Cl)cc2nc1O)C(O)c1ccc(Cl)c(Cl)c1 (stereo not drawn) | SF-539 | inactive |
| COc1ccccc1NC(=O)CC(=O)N1N=C(C)C(/N=N/c2ccc(C(=O)O)cc2)C1=O (stereo not drawn) | SF-539 | inactive |
| O=c1/c(=C/c2ccco2)sc2nc3ccccc3n12 | SF-539 | inactive |
| NS(=O)(=O)c1ccc(/N=N/c2cnc(O)c(O)c2)cc1 | SF-539 | inactive |
| CCOC(=O)/C=C(\C)c1ccc(OC)cc1 | SF-539 | inactive |
| Oc1nc2nc3ccccc3nc2nc1O | SF-539 | inactive |
| CCCCC/C=C\C=C\CCCCCCCCC(=O)OC | SF-539 | inactive |
| Cc1nc2c(N3CCCC3)nc(N3CCNCC3)nc2nc1NCc1ccccc1 | SF-539 | inactive |
| O=C(O)/C=C\C(=O)Nc1ccc(S(=O)(=O)c2ccc(NC(=O)/C=C\C(=O)O)cc2)cc1 | SF-539 | inactive |
| O=C(O)CSc1ccccc1C(=O)O | SF-539 | inactive |
| COc1c2c(cc3c1-c1c(cc4c(c1OC)OCO4)C1OC3C(C)C1C)OCO2.COc1cc2c(c(OC)c1OC)-c1c(cc3c(c1OC)OCO3)C1OC2C(C)C1C (stereo not drawn) | SF-539 | inactive |
| CC(NS(=O)(=O)c1ccc(Cl)cc1)C(=O)O (stereo not drawn) | SF-539 | inactive |
| COc1ccc2c(=O)c3ccoc3[nH]c2c1 | SF-539 | inactive |
| O=C1C(=Cc2cccs2)C(=O)N(CCc2ccccc2)S(=O)(=O)N1CCc1ccccc1 | SF-539 | inactive |
| CCC(=O)Nc1cccc(NC(=O)c2c(Cl)c(Cl)c(Cl)c(Cl)c2-c2nc3ccccc3[nH]2)c1 | SF-539 | inactive |
